All values here come from patent US20170008921A1.

Measurement description: Single dose oral pharmacokinetic study
Assay type: in vivo
Stated conditions: mouse; Mice oral PK @30 mg/kg; plasma; vehicle 10% Solutol+20% PEG; read-out: Cmax
Readout name: Cmax (ng/mL)

{"columns": ["Molecule", "Unit info", "Observed"],
 "data": [
  ["CC(C)C1=C2[C@H]3CC[C@@H]4[C@@]5(C)CC[C@H](OC(=O)[C@H]6C[C@@H](C(=O)O)C6(C)C)C(C)(C)[C@@H]5CC[C@@]4(C)[C@]3(C)CC[C@@]2(NC(=O)C(C)(C)NC(=O)c2ccc3[nH]c(-c4cnccn4)nc3c2)CC1=O [Example 15]", "ng/mL", 12800],
  ["Cc1ccc(-c2nc3cc(C(=O)NC(C)(C)C(=O)N[C@@]45CC[C@]6(C)[C@H](CC[C@@H]7[C@@]8(C)CC[C@H](OC(=O)[C@H]9C[C@@H](C(=O)O)C9(C)C)C(C)(C)[C@@H]8CC[C@]76C)C4=C(C(C)C)C(=O)C5)ccc3[nH]2)cn1 [Example 13]", "ng/mL", 2720],
  ["CC(C)C1=C2[C@H]3CC[C@@H]4[C@@]5(C)CC[C@H](OC(=O)[C@H]6C[C@@H](C(=O)O)C6(C)C)C(C)(C)[C@@H]5CC[C@@]4(C)[C@]3(C)CC[C@@]2(NC(=O)C(C)(C)NC(=O)c2cccnc2N2CCOCC2)CC1=O [Example 31]", "ng/mL", 18700],
  ["Cc1ccc(C(=O)NC2(C(=O)N[C@@]34CC[C@]5(C)[C@H](CC[C@@H]6[C@@]7(C)CC[C@H](OC(=O)[C@H]8C[C@@H](C(=O)O)C8(C)C)C(C)(C)[C@@H]7CC[C@]65C)C3=C(C(C)C)C(=O)C4)CCCCC2)cc1 [Example 50]", "ng/mL", 23300],
  ["CC(C)C1=C2[C@H]3CC[C@@H]4[C@@]5(C)CC[C@H](OC(=O)[C@H]6C[C@@H](C(=O)O)C6(C)C)C(C)(C)[C@@H]5CC[C@@]4(C)[C@]3(C)CC[C@@]2(NC(=O)C(C)(C)NC(=O)CN2CCCCC2)CC1=O [Example 10]", "ng/mL", 9790],
  ["Cc1ccc(C(=O)NC2(C(=O)N[C@@]34CC[C@]5(C)[C@H](CC[C@@H]6[C@@]7(C)CC[C@H](OC(=O)[C@H]8C[C@@H](C(=O)O)C8(C)C)C(C)(C)[C@@H]7CC[C@]65C)C3=C(C(C)C)C(=O)C4)CCC2)cn1 [Example 43]", "ng/mL", 31300],
  ["CC(C)C1=C2[C@H]3CC[C@@H]4[C@@]5(C)CC[C@H](OC(=O)[C@H]6C[C@@H](C(=O)O)C6(C)C)C(C)(C)[C@@H]5CC[C@@]4(C)[C@]3(C)CC[C@@]2(NC(=O)C(C)(C)NC(=O)c2ccoc2)CC1=O [Example 24]", "ng/mL", 29600],
  ["CC(C)C1=C2[C@H]3CC[C@@H]4[C@@]5(C)CC[C@H](OC(=O)[C@H]6C[C@@H](C(=O)O)C6(C)C)C(C)(C)[C@@H]5CC[C@@]4(C)[C@]3(C)CC[C@@]2(NC(=O)C2(NC(=O)c3ccc(Cl)cc3)CCCC2)CC1=O [Example 46]", "ng/mL", 29500],
  ["CC(C)C1=C2[C@H]3CC[C@@H]4[C@@]5(C)CC[C@H](OC(=O)[C@H]6C[C@@H](C(=O)O)C6(C)C)C(C)(C)[C@@H]5CC[C@@]4(C)[C@]3(C)CC[C@@]2(NC(=O)C(C)(C)NC(=O)c2ccc(Cl)cn2)CC1=O [Example 70]", "ng/mL", 36600],
  ["Cc1cn(-c2ccc(C(=O)NC(C)(C)C(=O)N[C@@]34CC[C@]5(C)[C@H](CC[C@@H]6[C@@]7(C)CC[C@H](OC(=O)[C@H]8C[C@@H](C(=O)O)C8(C)C)C(C)(C)[C@@H]7CC[C@]65C)C3=C(C(C)C)C(=O)C4)cc2)cn1 [Example 20]", "ng/mL", 19000],
  ["CC(C)C1=C2[C@H]3CC[C@@H]4[C@@]5(C)CC[C@H](OC(=O)[C@H]6C[C@@H](C(=O)O)C6(C)C)C(C)(C)[C@@H]5CC[C@@]4(C)[C@]3(C)CC[C@@]2(NC(=O)C(C)(C)NC(=O)C2(c3ccc(Cl)cc3)CC2)CC1=O [Example 2]", "ng/mL", 13200]
]}
